Test system: peptide-forming enzyme from Empedobacter brevis strain FERM BP-8113
Experiment: Enzyme inhibitors: effect on L-alanyl-L-glutamine production by the Mono S fraction enzyme
Assay type: biochemical
Settings: inhibitor at 10 mM, borate buffer pH 9.0, 25° C., 5 minutes; 100 = absence of enzyme inhibitor
ASSAY ENDPOINT: Relative activity of L-Ala-L-Gln production (%)
One number for each entry, in %.

Example cases with answers are listed next.
O=S(=O)(F)Cc1ccccc1 [Phenylmethylsulfonyl fluoride]	115
CCN1C(=O)C=CC1=O [N-Ethyl maleimide]	110
c1cnc2c(c1)ccc1cccnc12	96
N=C(N)Nc1ccc(C(=O)Oc2ccc([N+](=O)[O-])cc2)cc1 [p-Nitrophenyl-p′-guanidino benzoate, p-nitrophenyl-p′-guanidinobenzoate]	0.1

Proceed to the following item.
# input Which measured Relative activity of L-Ala-L-Gln production (%) value corresponds to O=C(O)CN(CCN(CC(=O)O)CC(=O)O)CC(=O)O ?
# output 96
